Test system: Plasmodium berghei
Test: Screen against P. berghei liver stage (PbLuc), transformed with Luciferase, at 10uM
Type: functional, HepG2
Settings: tested at 10 uM
The campaign covered roughly 69,000 compounds. About 8,600 (12%) showed an effect of 50% or more. This is one part of a sample in which strong results are shown more often than they occur.

[
  {
    "compound": "COc1cccc2c1OCC(NC(=O)NCc1cccs1)C2 (centres undefined)",
    "valueUnits": "%",
    "INHIBITION": 20.5
  },
  {
    "compound": "CC(=O)NCCC1CCCCN1C(=O)c1cccc(CCC(C)(C)O)c1 (centres undefined)",
    "valueUnits": "%",
    "INHIBITION": 19.7
  },
  {
    "compound": "COc1cccc2c1OCC(Cc1cc(C(N)=O)ccn1)C2 (centres undefined)",
    "valueUnits": "%",
    "INHIBITION": 38
  },
  {
    "compound": "CCN1CC(COC(=O)c2ccc(N(C)C)cc2F)CC1=O (centres undefined)",
    "valueUnits": "%",
    "INHIBITION": -56.7
  },
  {
    "compound": "COc1ncccc1CN1CCC2(CCCN2S(C)(=O)=O)CC1",
    "valueUnits": "%",
    "INHIBITION": 45.2
  },
  {
    "compound": "Nc1ccncc1-n1cc(CCO)cn1",
    "valueUnits": "%",
    "INHIBITION": 33.3
  },
  {
    "compound": "COc1ccc(Oc2ncccc2C(N)=O)cc1CN1CCCC1",
    "valueUnits": "%",
    "INHIBITION": 51.2
  },
  {
    "compound": "Cc1cc(NC(=O)CN2CCCC(Cn3nc(C)nc3C)C2)n(C)n1 (centres undefined)",
    "valueUnits": "%",
    "INHIBITION": -22.15
  },
  {
    "compound": "CC(C)(C)OC(=O)N(CCNS(=O)(=O)N1CCOCC1)C1CC1",
    "valueUnits": "%",
    "INHIBITION": -28
  },
  {
    "compound": "COc1cccc2c1OCC(C(=O)NCCc1nc3c(s1)CCC3)C2 (centres undefined)",
    "valueUnits": "%",
    "INHIBITION": 40.6
  },
  {
    "compound": "Cc1ccccc1OCCN(C)C(=O)NC(C)c1nncn1C (centres undefined)",
    "valueUnits": "%",
    "INHIBITION": 35.9
  },
  {
    "compound": "CN(Cc1cccnc1)C(=O)NC1CCN(Cc2ccccn2)CC1",
    "valueUnits": "%",
    "INHIBITION": 16.8
  },
  {
    "compound": "CNC(=O)c1ccnc(CC2COc3c(cccc3OC)C2)c1 (centres undefined)",
    "valueUnits": "%",
    "INHIBITION": -9.54
  },
  {
    "compound": "COc1ccc(F)cc1CN1CCCC(c2cc(C(N)=O)[nH]n2)C1 (centres undefined)",
    "valueUnits": "%",
    "INHIBITION": -2.42
  },
  {
    "compound": "O=C1N[C@H]2OCCC[C@H]2[C@H](c2ccccc2)N1",
    "valueUnits": "%",
    "INHIBITION": 52.2
  },
  {
    "compound": "CCc1ccccc1CN1CC[C@@]2(O)CCN(S(=O)(=O)N(C)C)C[C@H]2C1",
    "valueUnits": "%",
    "INHIBITION": 44.6
  },
  {
    "compound": "COc1cccc2c1OCC(C(=O)NCCc1nnc(C)s1)C2 (centres undefined)",
    "valueUnits": "%",
    "INHIBITION": 65.6
  },
  {
    "compound": "CS(=O)(=O)N1CCc2ncc(CNC(=O)C3CCC3)n2CC1",
    "valueUnits": "%",
    "INHIBITION": -18.2
  },
  {
    "compound": "O=C(NCc1nnc2n1CCCCC2)N1CCc2ccccc2C1",
    "valueUnits": "%",
    "INHIBITION": 41.2
  },
  {
    "compound": "O=C(CCNC(=O)N1CCC(c2ccccc2)C1)N1CCCCC1 (centres undefined)",
    "valueUnits": "%",
    "INHIBITION": -24.5
  },
  {
    "compound": "Cc1nc(-c2ccccc2C)n(CC(=O)NC2CCCC2)n1",
    "valueUnits": "%",
    "INHIBITION": 7.27
  },
  {
    "compound": "COc1cccc2c1OCC(NC(=O)NCCc1ccccn1)C2 (centres undefined)",
    "valueUnits": "%",
    "INHIBITION": 59.1
  },
  {
    "compound": "Cc1nn(C)c(Cl)c1C1CCCN1C(=O)c1ccncc1 (centres undefined)",
    "valueUnits": "%",
    "INHIBITION": 38.5
  },
  {
    "compound": "CCNC(=O)NC(=O)C(C)N(C)CCOc1ccccc1C (centres undefined)",
    "valueUnits": "%",
    "INHIBITION": 73.3
  },
  {
    "compound": "CCc1ncc2c(n1)CN(CC(=O)Nc1cc(C)no1)CC2",
    "valueUnits": "%",
    "INHIBITION": -25.8
  },
  {
    "compound": "CN(C)c1cc(CNC(=O)c2ccccc2Cl)ccn1",
    "valueUnits": "%",
    "INHIBITION": -7.35
  },
  {
    "compound": "COc1ccc([C@@H]2NC(=O)N[C@H]3OCCC[C@H]32)cc1",
    "valueUnits": "%",
    "INHIBITION": 42.1
  },
  {
    "compound": "COc1cccc(F)c1C(C)NC(=O)NCc1cnc(C)s1 (centres undefined)",
    "valueUnits": "%",
    "INHIBITION": -8.66
  },
  {
    "compound": "Cc1ccc(CNC(=O)Cc2c(C)nc3c(c2C)c(=O)[nH]n3C)cc1",
    "valueUnits": "%",
    "INHIBITION": 29.4
  },
  {
    "compound": "COc1cccc2c1OCC(C(=O)NCCc1nnc(N)s1)C2 (centres undefined)",
    "valueUnits": "%",
    "INHIBITION": 43.4
  },
  {
    "compound": "O=C(CN1CCCC1CCCO)NCc1ccccn1 (centres undefined)",
    "valueUnits": "%",
    "INHIBITION": 29.4
  },
  {
    "compound": "O=C1N[C@H]2OCCC[C@H]2[C@H](c2ccc(C(=O)O)cc2)N1",
    "valueUnits": "%",
    "INHIBITION": -1.25
  },
  {
    "compound": "Cn1cc(CN2CCn3cnc(COCC4CC4)c3C2)cn1",
    "valueUnits": "%",
    "INHIBITION": 5.63
  },
  {
    "compound": "CC(C)=CCN1CCN(Cc2nccn2C)C(C)C1 (centres undefined)",
    "valueUnits": "%",
    "INHIBITION": 35.77
  },
  {
    "compound": "Cc1cccc(CNC(=O)Nc2ccn(CCCC(=O)N(C)C)n2)c1",
    "valueUnits": "%",
    "INHIBITION": -6.52
  },
  {
    "compound": "Cc1cc(NC(=O)CN2CCn3c(nnc3C(C)C)C2)no1",
    "valueUnits": "%",
    "INHIBITION": 63.9
  },
  {
    "compound": "Cc1noc(C)c1C1CCCN1C(=O)c1cn2ccsc2n1 (centres undefined)",
    "valueUnits": "%",
    "INHIBITION": 12.9
  },
  {
    "compound": "COCCNC(=O)NC1(c2nc(-c3ccncc3)no2)CCCCC1",
    "valueUnits": "%",
    "INHIBITION": 56.3
  },
  {
    "compound": "Cc1cc(NC(=O)CN2CCCC2c2noc(C(C)C)n2)on1 (centres undefined)",
    "valueUnits": "%",
    "INHIBITION": -7.31
  },
  {
    "compound": "COc1ccc(Oc2ncccc2C(F)(F)F)cc1CN1CCCC1",
    "valueUnits": "%",
    "INHIBITION": 66.6
  },
  {
    "compound": "Cc1nccn1CCCN1CCCC(c2ccccc2)C1 (centres undefined)",
    "valueUnits": "%",
    "INHIBITION": 49.4
  },
  {
    "compound": "CC(C(=O)N1CCOCC1)n1cncn1 (centres undefined)",
    "valueUnits": "%",
    "INHIBITION": -18.8
  },
  {
    "compound": "O=C(NC1(c2nc(C3CC3)no2)CCCCC1)c1ccncc1",
    "valueUnits": "%",
    "INHIBITION": -3.19
  },
  {
    "compound": "Cc1cc(NC(=O)CN2CCn3c(nnc3C(C)C)C2)on1",
    "valueUnits": "%",
    "INHIBITION": -0.219
  },
  {
    "compound": "CCCN(CCC)c1ncc(S(=O)(=O)c2ccc(C)cc2)c(N)n1",
    "valueUnits": "%",
    "INHIBITION": 20.4
  },
  {
    "compound": "COc1cccc2c1OCC(Cc1cc(C(=O)N3CCCC3)ccn1)C2 (centres undefined)",
    "valueUnits": "%",
    "INHIBITION": 57.2
  },
  {
    "compound": "COc1ccccc1Oc1ncccc1CNC(=O)C(C)N1CCCC1 (centres undefined)",
    "valueUnits": "%",
    "INHIBITION": 21.7
  },
  {
    "compound": "O=C(NCC1CCC1)c1cccc(CN2CCS(=O)(=O)CC2)c1",
    "valueUnits": "%",
    "INHIBITION": 33.4
  },
  {
    "compound": "CC(C)N1C(=O)CN(CCCO)CC1(C)C",
    "valueUnits": "%",
    "INHIBITION": -23
  }
]

Data provenance is ChEMBL document CHEMBL4513216.
